studySystem: T1, rat APJ receptor (rat, UniProt Q9JHG3 1-377)
T1 sequence (looked up): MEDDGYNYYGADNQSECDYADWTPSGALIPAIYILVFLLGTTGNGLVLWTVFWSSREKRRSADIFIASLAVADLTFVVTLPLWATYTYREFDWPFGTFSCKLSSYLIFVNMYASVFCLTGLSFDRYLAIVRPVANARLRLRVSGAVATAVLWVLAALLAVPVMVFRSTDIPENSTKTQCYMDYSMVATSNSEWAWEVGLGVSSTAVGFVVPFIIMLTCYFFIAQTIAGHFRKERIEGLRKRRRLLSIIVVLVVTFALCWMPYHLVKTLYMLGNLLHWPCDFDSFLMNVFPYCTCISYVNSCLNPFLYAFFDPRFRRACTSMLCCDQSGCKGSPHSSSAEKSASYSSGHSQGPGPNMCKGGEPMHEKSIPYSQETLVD
experimentalProtocol: cell-based or functional assay
Starred links: 1 amine or outer side, 2 acyl side, 3 side chain; linkers in the order of their positions; H or OH if unused. Non-standard residues stand in square brackets, D forms with d. Primed or numbered codes have the meaning given here. *: point of attachment. Oic = O=C(O)[C@@H]1C[C@@H]2CCCC[C@@H]2N1; Phe(4-Cl) = N[C@@H](Cc1ccc(Cl)cc1)C(=O)O; γGlu = O=C(O)[C@H](CCC(=O)[*:2])N[*:1]; NMeR = CN[C@@H](CCCNC(=N)N)C(=O)O; Palmitoyl = CCCCCCCCCCCCCCCC(=O)*; αMeF = C[C@](N)(Cc1ccccc1)C(=O)O; Cha = N[C@@H](CC1CCCCC1)C(=O)O; Nle = CCCC[C@H](N)C(=O)O; Pip′ = not defined here; AEEA = NCCOCCOCC(=O)O

binder: Ac-QR[NMeR]LSHKGP[Nle]P[Phe(4-Cl)]-OH (SMILES CCCC[C@H](NC(=O)[C@@H]1CCCN1C(=O)CNC(=O)[C@H](CCCCN)NC(=O)[C@H](Cc1c[nH]cn1)NC(=O)[C@H](CO)NC(=O)[C@H](CC(C)C)NC(=O)[C@H](CCCNC(=N)N)N(C)C(=O)[C@H](CCCNC(=N)N)NC(=O)[C@H](CCC(N)=O)NC(C)=O)C(=O)N1CCC[C@H]1C(=O)N[C@@H](Cc1ccc(Cl)cc1)C(=O)O) [SEQ ID NO: 72]
uom: nM
EC50 Rat APJ Receptor: 40.6
--
binder: Palmitoyl-[γGlu][AEEA][AEEA][dQ]RP[NMeR][Cha]SHKG[Oic][Nle][Pip′][αMeF]-OH [SEQ ID NO: 609]
uom: nM
EC50 Rat APJ Receptor: 2.49
--
binder: QRPRLSHKGPXPF ({Acetyl-NH}QRP[NMeArg]LSHKGP[Nle]P[4-Cl-F]{COOH}) [SEQ ID NO: 68]
uom: nM
EC50 Rat APJ Receptor: 0.384
--
binder: Ac-RQRP[NMeR][Cha]SHKGP[Nle]P[Phe(4-Cl)]-OH (SMILES CCCC[C@H](NC(=O)[C@@H]1CCCN1C(=O)CNC(=O)[C@H](CCCCN)NC(=O)[C@H](Cc1c[nH]cn1)NC(=O)[C@H](CO)NC(=O)[C@H](CC1CCCCC1)NC(=O)[C@H](CCCNC(=N)N)N(C)C(=O)[C@@H]1CCCN1C(=O)[C@H](CCCNC(=N)N)NC(=O)[C@H](CCC(N)=O)NC(=O)[C@H](CCCNC(=N)N)NC(C)=O)C(=O)N1CCC[C@H]1C(=O)N[C@@H](Cc1ccc(Cl)cc1)C(=O)O) [SEQ ID NO: 66]
uom: nM
EC50 Rat APJ Receptor: 0.156
